# TARGET_UNDER_TEST: Cytochrome P450 3A4 (Homo sapiens) (UniProt P08684)
# Sequence (P08684 whole entry, looked up): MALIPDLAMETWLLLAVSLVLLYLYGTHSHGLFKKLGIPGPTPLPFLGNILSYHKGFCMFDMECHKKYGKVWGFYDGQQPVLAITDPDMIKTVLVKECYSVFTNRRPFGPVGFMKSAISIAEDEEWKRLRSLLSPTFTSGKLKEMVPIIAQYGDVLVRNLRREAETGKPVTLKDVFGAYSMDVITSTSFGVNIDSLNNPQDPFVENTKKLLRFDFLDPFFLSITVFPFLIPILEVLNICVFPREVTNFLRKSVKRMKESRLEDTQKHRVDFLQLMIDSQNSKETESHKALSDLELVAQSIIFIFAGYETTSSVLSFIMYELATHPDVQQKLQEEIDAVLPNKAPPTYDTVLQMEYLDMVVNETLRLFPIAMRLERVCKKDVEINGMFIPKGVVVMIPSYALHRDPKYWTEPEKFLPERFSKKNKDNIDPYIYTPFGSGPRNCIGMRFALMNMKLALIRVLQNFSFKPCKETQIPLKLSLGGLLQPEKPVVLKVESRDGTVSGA
# EXPERIMENTAL_PROTOCOL: Cytochrome panel assay with activity outcomes
# CONDITION_INFO: recombinant CYP, pro-luciferin dealkylation, luminescence, p450-cyp3a4; series mostly up to 57.1 µM
Out of some 16,000 compounds screened, about 5,100 (32%) were called active. Inconclusive results (about 25%) are left out. This is one part of the list.
REPORTED_PROPERTY: AC50

Consider the worked cases shown below.
# MOLECULE, AC50
data = [
    ("COc1ccccc1CNS(=O)(=O)c1ccc2[nH]cc(C(=O)O)c(=O)c2c1", "inactive"),
    ("CN(Cc1ccco1)c1ncncc1-c1cccc(C#N)c1", "7.94 µM (active)"),
    ("CCCCCCCCC(=O)N/N=C/c1ccccn1", "inactive"),
    ("CC(C)c1ccc(Cn2ccc3c4c(N)nc(NC5CC5)nc4ccc32)cc1", "6.31 µM (active)"),
    ("CN(C)C(=O)c1ccc(-c2nccc(N(C)Cc3ccco3)n2)cc1", "inactive"),
]

AC50 reading for "c1ccc(-c2ccc3c(c2)c2c4n3CCN=C4CCC2)cc1" : inactive

AC50 reading for "O=C(/C(=C/c1ccc(Cl)cc1)c1nc2ccccc2[nH]1)c1ccccc1" : 3.55 µM (active)

AC50 reading for "CCC(C)(C)N=C(NC#N)Nc1cccnc1" : 5.01 µM (active)

AC50 reading for "O=C(OCCN1CCCCC1)c1c[nH]c2ccccc12" : inactive

AC50 reading for "COc1cc(Cl)c(CC(=O)c2c[nH]c3ccccc23)cc1OC" : 2.51 µM (active)

AC50 reading for COC(=O)C1CC1C(NC(=O)[C@H]1CCCCN1)c1ccccc1 (some centres not stated) : 10 µM (active)

AC50 reading for "CN(Cc1ccco1)c1ncncc1-c1ccc2c(c1)OCO2" : 1.26 µM (active)

* * *

# TARGET_UNDER_TEST: Cytochrome P450 3A4 (Homo sapiens) (UniProt P08684)
# EXPERIMENTAL_PROTOCOL: Cytochrome panel assay with activity outcomes
# CONDITION_INFO: recombinant CYP, pro-luciferin dealkylation, luminescence, p450-cyp3a4; series mostly up to 57.1 µM
Among all 16,000 compounds or so, about 5,100 (32%) were called active. About 25% were inconclusive and are not listed. Calls follow the shape of the dose curve; as a rule, active = well fitted curve in the direction sought with a large enough effect; inconclusive = small, poorly fitted or top-dose-only effect, or effect the other way; inactive = no such curve, though single readings can be large or run the other way. The list shows a part of the results.
Please state which outcome applies, choosing from 1 (active), 0 (inactive)

Examples from the recorded data:
# MOLECULE, TARGET_UNDER_TEST, CAT
data = [
    ("Cc1ccccc1-c1ccc2ncnc(NC3CC3)c2c1", "Cytochrome P450 3A4 (Homo sapiens) (UniProt P08684)", 1),
    ("C=CCC(C(=O)OC)(C(=O)OC)c1ccc([N+](=O)[O-])cn1", "Cytochrome P450 3A4 (Homo sapiens) (UniProt P08684)", 0),
    ("O=C(/C=C\\c1ccc(O)c(O)c1)O[C@@H]1C[C@](O)(C(=O)O)C[C@@H](O)[C@@H]1O", "Cytochrome P450 3A4 (Homo sapiens) (UniProt P08684)", 0),
    ("NCCSSCCN", "Cytochrome P450 3A4 (Homo sapiens) (UniProt P08684)", 0),
    ("Cc1ccc(C(CC(N)=O)c2ccco2)cc1 (stereo not drawn)", "Cytochrome P450 3A4 (Homo sapiens) (UniProt P08684)", 0),
]

Now let's try a different one.
## Input Can you look up the reported call for "COc1ccc(CNc2cc(-c3ccccc3OC)ncn2)c(OC)c1" for me?
## Output 1

* * *

# TARGET_UNDER_TEST: Cytochrome P450 3A4 (Homo sapiens)
# EXPERIMENTAL_PROTOCOL: Cytochrome panel assay with activity outcomes; as to activity, negative = inhibition: % is scaled to controls: 0 for no effect and ±100 for the full control effect
# CONDITION_INFO: recombinant CYP, pro-luciferin dealkylation, luminescence, p450-cyp3a4; series mostly up to 57.1 µM
In all, about 16,000 compounds went through this assay and about 5,100 (32%) were called active. Another 25% or so got no clear call; they are omitted. Some of the results follow.
REPORTED_PROPERTY: activity, negative = inhibition

Consider the worked cases shown below.
# COMPOUND, activity, negative = inhibition
records = [
    ("CC(Sc1nc(NCc2ccccc2)nc(N(C)C)n1)C(=O)Nc1ccccc1 (configuration not stated)", "-9.99% [at 2.29 µM] (inactive)"),
    ("O=C(O)CCNc1ncnc2nc[nH]c12", "-0.12% [at 11.4 µM] (inactive)"),
    ("O=C(O)[C@H](CCc1ccccn1)c1ccccc1", "0.483% [at 11.4 µM] (inactive)"),
]

Then this compound:
activity, negative = inhibition reading for "CCSc1nnc(NC(=O)Cc2ccc(OC)c(OC)c2)s1" : -2.65% [at 2.29 µM] (inactive)

* * *

# TARGET_UNDER_TEST: Cytochrome P450 3A4 (Homo sapiens) (UniProt P08684)
# EXPERIMENTAL_PROTOCOL: Cytochrome panel assay with activity outcomes
# CONDITION_INFO: recombinant CYP, pro-luciferin dealkylation, luminescence, p450-cyp3a4; series mostly up to 57.1 µM
In all, about 16,000 compounds went through this assay and about 5,100 (32%) were called active. Not shown: some 25% with an inconclusive outcome. The list shows a part of the results.
REPORTED_PROPERTY: AC50

Consider the worked cases shown below.
# COMPOUND, TARGET_UNDER_TEST, AC50
measured = [
    ("COc1ccc2[nH]cc(CCNc3nc(-c4ccc(N(C)C)cc4)nc4ccccc34)c2c1", "Cytochrome P450 3A4 (Homo sapiens) (UniProt P08684)", "2.51 µM (active)"),
    ("CC(=O)N[C@H](c1ccccc1)[C@@]1(C)C[C@@H]1[C@@H](C)C(=O)Nc1ccc2ccccc2c1", "Cytochrome P450 3A4 (Homo sapiens) (UniProt P08684)", "7.94 µM (active)"),
    ("CCOC(=O)COc1c(OC)cc(Cl)cc1C1Nc2ccccc2C(=O)N1c1ccc(F)cc1 (stereo unspecified)", "Cytochrome P450 3A4 (Homo sapiens) (UniProt P08684)", "inactive"),
    ("Cc1cnc(CNc2ncnc3ccc(-c4ccccc4Cl)cc23)cn1", "Cytochrome P450 3A4 (Homo sapiens) (UniProt P08684)", "2.51 µM (active)"),
    ("Cc1ccccc1C(C(=O)NCc1ccccc1)N(Cc1ccco1)C(=O)c1ccccn1 (stereo unspecified)", "Cytochrome P450 3A4 (Homo sapiens) (UniProt P08684)", "3.16 µM (active)"),
    ("Nc1nc(=S)[nH]c2c1C1(CCCC1)Cc1ccccc1-2", "Cytochrome P450 3A4 (Homo sapiens) (UniProt P08684)", "20 µM (active)"),
    ("COc1cc(C2C(C#N)=C(N)N(Nc3ccccc3)C3=C2C(=O)CC(C)(C)C3)ccc1OCc1cccc(F)c1 (stereo unspecified)", "Cytochrome P450 3A4 (Homo sapiens) (UniProt P08684)", "2.51 µM (active)"),
    ("C[C@@H](C(=O)Nc1ccc2ccccc2c1)[C@H]1C[C@]1(C)[C@H](NC(=O)Oc1ccc(F)cc1)c1ccccc1", "Cytochrome P450 3A4 (Homo sapiens) (UniProt P08684)", "0.794 µM (active)"),
    ("CCCCN(C)CCCNC(=O)CCn1nc(-c2ccccc2)ccc1=O", "Cytochrome P450 3A4 (Homo sapiens) (UniProt P08684)", "inactive"),
    ("CN1CCC2(CC1)CCN(S(=O)(=O)c1ccccc1)CC2", "Cytochrome P450 3A4 (Homo sapiens) (UniProt P08684)", "inactive"),
]

AC50 reading for O=C1CSC(c2ccccc2F)N1c1cc(Cl)ccc1O (stereo unspecified) : 25.1 µM (active)

AC50 reading for COc1ccc(OC)c(C2N(c3cc(C)on3)C(=O)C3CCCN32)c1 (stereo unspecified) : inactive

* * *

# TARGET_UNDER_TEST: Cytochrome P450 3A4 (Homo sapiens) (UniProt P08684)
# EXPERIMENTAL_PROTOCOL: Cytochrome panel assay with activity outcomes
# CONDITION_INFO: recombinant CYP, pro-luciferin dealkylation, luminescence, p450-cyp3a4; series mostly up to 57.1 µM
Hit rate of the full screen: of about 16,000 compounds, about 5,100 (32%) were called active. About 25% were inconclusive and are not listed. Calls come from the whole dose curve; as a rule, active = well fitted curve in the direction sought with a large enough effect; inconclusive = small, poorly fitted or top-dose-only effect, or effect the other way; inactive = no such curve, though single readings can be large or run the other way. Some of the results follow.
Please state which outcome applies, choosing from active, inactive

Examples from the recorded data:
# COMPOUND, CAT
data = [
    ("C=CCNC(=O)/C(=C\\c1ccc2c(c1)OCO2)NC(=O)c1ccc(Br)cc1", "active"),
    ("Cc1noc(C)c1C(=O)N1CCC[C@@]2(CCN(Cc3nccs3)C2)C1", "active"),
]

## Input Can you look up the reported call for "Cc1ccc(NC(=O)/C(=C\c2ccc3c(c2)OCO3)NC(=O)c2ccco2)cc1" for me?
## Output active

## Input Can you look up the reported call for O=C(NC(Cc1ccccc1)C(=O)O)/C(=C\c1ccco1)NC(=O)c1ccc(Br)cc1 (stereo not given) for me?
## Output inactive

## Input Can you look up the reported call for "Cc1noc(C)c1C(=O)N1CCC2(CCN(Cc3nccs3)CC2)CC1" for me?
## Output inactive
